Test system: Enterococcus faecalis
procedure details: Antimicrobial activity against Enterococcus faecalis clinical isolates assessed as percent susceptible isolates by broth microdilution method
Assay type: functional
In this section, each of the compounds is paired with its reported Activity.
Respond with the bare value in %.

INSERT INTO assay_data (structure, quantity_measured, measure_unit, number) VALUES
  ('C[C@H]1COc2c(N3CCN(C)CC3)c(F)cc3c(=O)c(C(=O)O)cn1c23.C[C@H]1COc2c(N3CCN(C)CC3)c(F)cc3c(=O)c(C(=O)O)cn1c23.O', 'Activity', '%', 61.2),
  ('CC(=O)NC[C@H]1CN(c2ccc(N3CCOCC3)c(F)c2)C(=O)O1', 'Activity', '%', 99.8),
  ('CCCCCCCCCC(=O)N[C@@H](Cc1c[nH]c2ccccc12)C(=O)N[C@H](CC(N)=O)C(=O)N[C@@H](CC(=O)O)C(=O)N[C@@H]1C(=O)NCC(=O)N[C@@H](CCCN)C(=O)N[C@@H](CC(=O)O)C(=O)N[C@H](C)C(=O)N[C@@H](CC(=O)O)C(=O)NCC(=O)N[C@H](CO)C(=O)N[C@@H]([C@H](C)CC(=O)O)C(=O)N[C@@H](CC(=O)c2ccccc2N)C(=O)O[C@@H]1C', 'Activity', '%', 99.9);

Dear colleague, please send me the reported Activity for `CC1(C)S[C@@H]2[C@H](NC(=O)[C@H](N)c3ccccc3)C(=O)N2[C@H]1C(=O)O` when you can. 99.9

Input `CN[C@@H]1[C@H](O[C@H]2[C@H](O[C@H]3[C@H](O)[C@@H](O)[C@H](N=C(N)N)[C@@H](O)[C@@H]3N=C(N)N)O[C@@H](C)[C@]2(O)C=O)O[C@@H](CO)[C@H](O)[C@H]1O` , output reported Activity. 70.1

Specify Activity for `CN[C@H](CC(C)C)C(=O)N[C@H]1C(=O)N[C@@H](CC(N)=O)C(=O)N[C@H]2C(=O)N[C@H]3C(=O)N[C@H](C(=O)N[C@H](C(=O)O)c4cc(O)cc(O)c4-c4cc3ccc4O)[C@H](O)c3ccc(c(Cl)c3)Oc3cc2cc(c3O[C@@H]2O[C@H](CO)[C@@H](O)[C@H](O)[C@H]2O[C@H]2C[C@](C)(N)[C@H](O)[C@H](C)O2)Oc2ccc(cc2Cl)[C@H]1O` and stop. 95

---

As shown below, each of these compounds has a reported MIC90 value.
procedure details: Antimicrobial activity against erythromycin-nonsusceptible Streptococcus Group C clinical isolates by broth microdilution method
Format: functional
conditions: Streptococcus sp. 'group C'
All answers are understood in µg/mL, so give the number only.

Consider the following illustrative entries.
INSERT INTO measurements (structure, quantity_measured, measure_unit, number) VALUES
  ('CN[C@H](CC(C)C)C(=O)N[C@H]1C(=O)N[C@@H](CC(N)=O)C(=O)N[C@H]2C(=O)N[C@H]3C(=O)N[C@H](C(=O)N[C@H](C(=O)O)c4cc(O)cc(O)c4-c4cc3ccc4O)[C@H](O[C@H]3C[C@](C)(N)[C@@H](O)[C@H](C)O3)c3ccc(c(Cl)c3)Oc3cc2cc(c3O[C@@H]2O[C@H](CO)[C@@H](O)[C@H](O)[C@H]2O[C@H]2C[C@](C)(NCc3ccc(-c4ccc(Cl)cc4)cc3)[C@@H](O)[C@H](C)O2)Oc2ccc(cc2Cl)[C@H]1O', 'MIC90', 'µg/mL', 0.25),
  ('CC1(C)S[C@@H]2[C@H](NC(=O)Cc3ccccc3)C(=O)N2[C@H]1C(=O)O', 'MIC90', 'µg/mL', 0.03),
  ('C[C@H]1COc2c(N3CCN(C)CC3)c(F)cc3c(=O)c(C(=O)O)cn1c23.C[C@H]1COc2c(N3CCN(C)CC3)c(F)cc3c(=O)c(C(=O)O)cn1c23.O', 'MIC90', 'µg/mL', 0.5);

Please look at this compound and report its MIC90: `CN[C@H](CC(C)C)C(=O)N[C@H]1C(=O)N[C@@H](CC(N)=O)C(=O)N[C@H]2C(=O)N[C@H]3C(=O)N[C@H](C(=O)N[C@H](C(=O)O)c4cc(O)cc(O)c4-c4cc3ccc4O)[C@H](O)c3ccc(c(Cl)c3)Oc3cc2cc(c3O[C@@H]2O[C@H](CO)[C@@H](O)[C@H](O)[C@H]2O[C@H]2C[C@](C)(N)[C@H](O)[C@H](C)O2)Oc2ccc(cc2Cl)[C@H]1O` 0.5

---

Recorded Activity for the following compounds
Test system: Streptococcus agalactiae
procedure details: Antimicrobial activity against erythromycin-susceptible Streptococcus agalactiae clinical isolates assessed as percent susceptible isolates by broth microdilution method
Format: functional

Use the examples below as a reference point.
INSERT INTO measurements (structure, result) VALUES
  ('CC[C@H]1OC(=O)[C@H](C)[C@@H](O[C@H]2C[C@@](C)(OC)[C@@H](O)[C@H](C)O2)[C@H](C)[C@@H](O[C@@H]2O[C@H](C)C[C@H](N(C)C)[C@H]2O)[C@](C)(O)C[C@@H](C)C(=O)[C@H](C)[C@@H](O)[C@]1(C)O', '100%'),
  ('C[C@H]1COc2c(N3CCN(C)CC3)c(F)cc3c(=O)c(C(=O)O)cn1c23.C[C@H]1COc2c(N3CCN(C)CC3)c(F)cc3c(=O)c(C(=O)O)cn1c23.O', '98.6%'),
  ('CCC[C@@H]1C[C@@H](C(=O)N[C@@H]([C@H]2O[C@H](SC)[C@H](O)[C@@H](O)[C@H]2O)[C@H](C)Cl)N(C)C1', '99%');

Alright, here's another compound for you.
Give the reported Activity for this compound. `CN[C@H](CC(C)C)C(=O)N[C@H]1C(=O)N[C@@H](CC(N)=O)C(=O)N[C@H]2C(=O)N[C@H]3C(=O)N[C@H](C(=O)N[C@H](C(=O)O)c4cc(O)cc(O)c4-c4cc3ccc4O)[C@H](O)c3ccc(c(Cl)c3)Oc3cc2cc(c3O[C@@H]2O[C@H](CO)[C@@H](O)[C@H](O)[C@H]2O[C@H]2C[C@](C)(N)[C@H](O)[C@H](C)O2)Oc2ccc(cc2Cl)[C@H]1O` 100%

---

System: Enterococcus faecalis
procedure details: Antimicrobial activity against Enterococcus faecalis clinical isolates assessed as resistant isolates by broth microdilution method
Type: functional
quantity measured: Activity (%)
Field: numeric (%). Do not append units.

Answered examples (3):
INSERT INTO assay_data (structure, assayed_target, quantity_measured, number) VALUES
  ('CN[C@@H]1[C@H](O[C@H]2[C@H](O[C@H]3[C@H](O)[C@@H](O)[C@H](N=C(N)N)[C@@H](O)[C@@H]3N=C(N)N)O[C@@H](C)[C@]2(O)C=O)O[C@@H](CO)[C@H](O)[C@H]1O', 'Enterococcus faecalis', 'Activity', 29.9),
  ('CC1(C)S[C@@H]2[C@H](NC(=O)[C@H](N)c3ccccc3)C(=O)N2[C@H]1C(=O)O', 'Enterococcus faecalis', 'Activity', 0.1),
  ('CC(=O)NC[C@H]1CN(c2ccc(N3CCOCC3)c(F)c2)C(=O)O1', 'Enterococcus faecalis', 'Activity', 0.2);

Name the recorded Activity of the compound listed here: `CN[C@H](CC(C)C)C(=O)N[C@H]1C(=O)N[C@@H](CC(N)=O)C(=O)N[C@H]2C(=O)N[C@H]3C(=O)N[C@H](C(=O)N[C@H](C(=O)O)c4cc(O)cc(O)c4-c4cc3ccc4O)[C@H](O)c3ccc(c(Cl)c3)Oc3cc2cc(c3O[C@@H]2O[C@H](CO)[C@@H](O)[C@H](O)[C@H]2O[C@H]2C[C@](C)(N)[C@H](O)[C@H](C)O2)Oc2ccc(cc2Cl)[C@H]1O` 4.7

Please supply the value of reported Activity for the item `C[C@H]1COc2c(N3CCN(C)CC3)c(F)cc3c(=O)c(C(=O)O)cn1c23.C[C@H]1COc2c(N3CCN(C)CC3)c(F)cc3c(=O)c(C(=O)O)cn1c23.O` 38.4

---

Tested on: Streptococcus pneumoniae
procedure details: Antimicrobial activity against penicillin-resistant Streptococcus pneumoniae clinical isolates by broth microdilution method
Format: functional
quantity measured: MIC90 (µg/mL)
Just the number please, in µg/mL, no unit attached.

Consider the following illustrative entries.
INSERT INTO assay_data (structure, number) VALUES
  ('CC[C@H]1OC(=O)[C@H](C)C(=O)[C@H](C)[C@@H](O[C@@H]2O[C@H](C)C[C@H](N(C)C)[C@H]2O)[C@](C)(OC)C[C@@H](C)C(=O)[C@H](C)[C@H]2N(CCCCn3cnc(-c4cccnc4)c3)C(=O)O[C@]12C', 0.5),
  ('C[C@H]1COc2c(N3CCN(C)CC3)c(F)cc3c(=O)c(C(=O)O)cn1c23.C[C@H]1COc2c(N3CCN(C)CC3)c(F)cc3c(=O)c(C(=O)O)cn1c23.O', 1),
  ('CO/N=C(\C(=O)N[C@@H]1C(=O)N2C(C(=O)O)=C(CSc3nc(=O)c(O)nn3C)CS[C@H]12)c1csc(N)n1', 2),
  ('CN[C@H](CC(C)C)C(=O)N[C@H]1C(=O)N[C@@H](CC(N)=O)C(=O)N[C@H]2C(=O)N[C@H]3C(=O)N[C@H](C(=O)N[C@H](C(=O)O)c4cc(O)cc(O)c4-c4cc3ccc4O)[C@H](O)c3ccc(c(Cl)c3)Oc3cc2cc(c3O[C@@H]2O[C@H](CO)[C@@H](O)[C@H](O)[C@H]2O[C@H]2C[C@](C)(N)[C@H](O)[C@H](C)O2)Oc2ccc(cc2Cl)[C@H]1O', 0.5);

Turning to the following compound.
For the compound `CN[C@H](CC(C)C)C(=O)N[C@H]1C(=O)N[C@@H](CC(N)=O)C(=O)N[C@H]2C(=O)N[C@H]3C(=O)N[C@H](C(=O)N[C@H](C(=O)O)c4cc(O)cc(O)c4-c4cc3ccc4O)[C@H](O[C@H]3C[C@](C)(N)[C@@H](O)[C@H](C)O3)c3ccc(c(Cl)c3)Oc3cc2cc(c3O[C@@H]2O[C@H](CO)[C@@H](O)[C@H](O)[C@H]2O[C@H]2C[C@](C)(NCc3ccc(-c4ccc(Cl)cc4)cc3)[C@@H](O)[C@H](C)O2)Oc2ccc(cc2Cl)[C@H]1O` , report MIC90. 0.008
